Provenance of the data: ChEMBL document CHEMBL5625248

test: Cytotoxicity against human Squamous epithelial cell assessed as cell viability upto 50 ug/ml relative to control; format: toxicity, cell-based; conditions: squamous epithelial cells, up to 50 µg/mL, read-out: Activity
Test Readout: viability

N#C/C(=C\c1cn(CCO)c2ccccc12)S(=O)(=O)c1ccc(N)cc1 has a reported viability of > 85%

----------
tested on: Pseudomonas aeruginosa; test: Antibacterial activity against Pseudomonas aeruginosa ATCC 27853 assessed as inhibition of bacterial growth incubated for 18 hrs by two fold broth microdilution assay; type: functional
Values of MIC strictly less than 30 µg/mL map to TRUE, and values of at least 30 µg/mL map to FALSE.

Qu. I wonder whether CC(=O)Nc1ccc(S(=O)(=O)/C(C#N)=C/c2c[nH]c3cc(F)ccc23)cc1 has MIC below 30 µg/mL. Can you tell?
Ans. TRUE

Qu. I wonder whether N#C/C(=C\c1cn(CC2CCCC2)c2ccccc12)S(=O)(=O)c1ccc(N)cc1 has MIC below 30 µg/mL. Can you tell?
Ans. FALSE

Qu. I wonder whether CCN(CC)C(=O)Cn1cc(/C=C(\C#N)S(=O)(=O)c2ccc(NC(C)=O)cc2)c2ccccc21 has MIC below 30 µg/mL. Can you tell?
Ans. FALSE

Qu. I wonder whether N#C/C(=C\c1c[nH]c2ccc([N+](=O)[O-])cc12)S(=O)(=O)c1ccc(N)cc1 has MIC below 30 µg/mL. Can you tell?
Ans. TRUE

Qu. I wonder whether N#C/C(=C\c1cn(Cc2ccccc2F)c2ccccc12)S(=O)(=O)c1ccc(N)cc1 has MIC below 30 µg/mL. Can you tell?
Ans. FALSE

Qu. I wonder whether CC(=O)Nc1ccc(S(=O)(=O)/C(C#N)=C/c2c[nH]c3c(C)cccc23)cc1 has MIC below 30 µg/mL. Can you tell?
Ans. FALSE

Qu. I wonder whether CCn1cc(/C=C(\C#N)S(=O)(=O)c2ccc(NC(C)=O)cc2)c2ccccc21 has MIC below 30 µg/mL. Can you tell?
Ans. TRUE

Qu. I wonder whether N#C/C(=C\c1cn(Cc2cccc(Cl)c2)c2ccccc12)S(=O)(=O)c1ccc(N)cc1 has MIC below 30 µg/mL. Can you tell?
Ans. FALSE

Qu. I wonder whether CC(=O)Nc1ccc(S(=O)(=O)/C(C#N)=C/c2cn(Cc3cccc(F)c3)c3ccccc23)cc1 has MIC below 30 µg/mL. Can you tell?
Ans. TRUE

Qu. I wonder whether CCCCCCCCn1cc(/C=C(\C#N)S(=O)(=O)c2ccc(NC(C)=O)cc2)c2ccccc21 has MIC below 30 µg/mL. Can you tell?
Ans. TRUE

Qu. I wonder whether CCn1cc(C(=O)O)c(=O)c2cc(F)c(N3CCNCC3)cc21 has MIC below 30 µg/mL. Can you tell?
Ans. TRUE

Qu. I wonder whether CCCCCCn1cc(/C=C(\C#N)S(=O)(=O)c2ccc(N)cc2)c2ccccc21 has MIC below 30 µg/mL. Can you tell?
Ans. TRUE

Qu. I wonder whether CCn1cc(/C=C(\C#N)S(=O)(=O)c2ccc(N)cc2)c2ccccc21 has MIC below 30 µg/mL. Can you tell?
Ans. TRUE

Qu. I wonder whether N#C/C(=C\c1cn(Cc2ccc(Cl)c(Cl)c2)c2ccccc12)S(=O)(=O)c1ccc(N)cc1 has MIC below 30 µg/mL. Can you tell?
Ans. FALSE

Qu. I wonder whether CC(=O)Nc1ccc(S(=O)(=O)/C(C#N)=C/c2cn(CCN3CCOCC3)c3ccccc23)cc1 has MIC below 30 µg/mL. Can you tell?
Ans. TRUE

Qu. I wonder whether CC(=O)Nc1ccc(S(=O)(=O)/C(C#N)=C/c2cn(C(=O)OC(C)(C)C)c3ccccc23)cc1 has MIC below 30 µg/mL. Can you tell?
Ans. FALSE

Qu. I wonder whether N#C/C(=C\c1cn(Cc2ccc(F)cc2F)c2ccccc12)S(=O)(=O)c1ccc(N)cc1 has MIC below 30 µg/mL. Can you tell?
Ans. FALSE

Qu. I wonder whether CC(=O)Nc1ccc(S(=O)(=O)/C(C#N)=C/c2c[nH]c3ccccc23)cc1 has MIC below 30 µg/mL. Can you tell?
Ans. TRUE

Qu. I wonder whether CC(=O)Nc1ccc(S(=O)(=O)/C(C#N)=C/c2cn(CC(=O)OC(C)(C)C)c3ccccc23)cc1 has MIC below 30 µg/mL. Can you tell?
Ans. FALSE

Qu. I wonder whether CC(=O)Nc1ccc(S(=O)(=O)/C(C#N)=C/c2cn(Cc3ccc(Cl)c(Cl)c3)c3ccccc23)cc1 has MIC below 30 µg/mL. Can you tell?
Ans. TRUE

Qu. I wonder whether Cc1cccc2c(/C=C(\C#N)S(=O)(=O)c3ccc(N)cc3)c[nH]c12 has MIC below 30 µg/mL. Can you tell?
Ans. FALSE

Qu. I wonder whether CC(=O)Nc1ccc(S(=O)(=O)/C(C#N)=C/c2cn(CC3CC3)c3ccccc23)cc1 has MIC below 30 µg/mL. Can you tell?
Ans. FALSE

Qu. I wonder whether C=CCn1cc(/C=C(\C#N)S(=O)(=O)c2ccc(NC(C)=O)cc2)c2ccccc21 has MIC below 30 µg/mL. Can you tell?
Ans. TRUE

Qu. I wonder whether N#C/C(=C\c1c[nH]c2cc(F)ccc12)S(=O)(=O)c1ccc(N)cc1 has MIC below 30 µg/mL. Can you tell?
Ans. TRUE

Qu. I wonder whether CC(C)=CCn1cc(/C=C(\C#N)S(=O)(=O)c2ccc(N)cc2)c2ccccc21 has MIC below 30 µg/mL. Can you tell?
Ans. TRUE

Qu. I wonder whether N#C/C(=C\c1c[nH]c2cc(Br)ccc12)S(=O)(=O)c1ccc(N)cc1 has MIC below 30 µg/mL. Can you tell?
Ans. FALSE

Qu. I wonder whether CC(=O)Nc1ccc(S(=O)(=O)/C(C#N)=C/c2cn(CC3CCCC3)c3ccccc23)cc1 has MIC below 30 µg/mL. Can you tell?
Ans. TRUE

Qu. I wonder whether N#C/C(=C\c1c[nH]c2cccc(Cl)c12)S(=O)(=O)c1ccc(N)cc1 has MIC below 30 µg/mL. Can you tell?
Ans. FALSE

Qu. I wonder whether N#C/C(=C\c1cn(Cc2ccc(Cl)cc2Cl)c2ccccc12)S(=O)(=O)c1ccc(N)cc1 has MIC below 30 µg/mL. Can you tell?
Ans. FALSE

Qu. I wonder whether CC(=O)Nc1ccc(S(=O)(=O)/C(C#N)=C/c2cn(Cc3ccccc3Cl)c3ccccc23)cc1 has MIC below 30 µg/mL. Can you tell?
Ans. TRUE
